Reported area over the GR curve is given for each of the following compounds.
Tested on: SUM1315
Assay: area over the GR curve, 72 h; higher = more effect;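 note: Dye Drop or Deep Dye Drop imaging of viable cells in 384-well plates (Hoechst nuclei, LIVE/DEAD dye), nine half-log doses, GR normalized to DMSO controls and time-zero plates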
Write the answer as a number in GR, unit excluded.

Worked set:
COMPOUND	UNITS LABEL	area over the GR curve
CC(C)Nc1cc(-c2c[nH]c(C(=O)N[C@H](CO)c3cccc(Cl)c3)c2)c(Cl)cn1 [BVD523] (max 10 µM)	GR	0.0786
CCN1CCN(Cc2ccc(Nc3ncc(F)c(-c4cc(F)c5nc(C)n(C(C)C)c5c4)n3)nc2)CC1 (max 10 µM)	GR	0.582
CN1CCN(C(=O)c2ccc3cc(CCNc4ncnc5ccc(C#N)cc45)ccc3c2)CC1 [senexin b] (max 10 µM)	GR	0.175
CC(=O)c1c(C)c2cnc(Nc3ccc(N4CCN(CCOCCOCCOCCNC(=O)COc5cccc6c5C(=O)N(C5CCC(=O)NC5=O)C6=O)CC4)cn3)nc2n(C2CCCC2)c1=O (configuration not stated) [BSJ-03-123] (max 10 µM)	GR	0.312
O=C(c1cc(Cc2n[nH]c(=O)c3ccccc23)ccc1F)N1CCN(C(=O)C2CC2)CC1 [Olaparib/AZD2281] (max 10 µM)	GR	0.245

// query May I ask what area over the GR curve has been recorded for CCCCOc1c(C(=O)c2c(F)cc(C)cc2F)c[nH]c2nncc1-2 (max 10 µM) ?
// result 0.872

// query May I ask what area over the GR curve has been recorded for NC(=O)Nc1cc(-c2cccc(F)c2)sc1C(=O)N[C@H]1CCCNC1 [AZD7762] (max 10 µM) ?
// result 0.68
